Provenance of the data: paper PMC3660254

- target-or-system: T1, hnRNP-Q2 (SYNCRIP, hnRNP-Q isoform 2) (mouse (cDNA from Krebs-2 cells), UniProt Q7TMK9-2 1-562)
- T1 sequence: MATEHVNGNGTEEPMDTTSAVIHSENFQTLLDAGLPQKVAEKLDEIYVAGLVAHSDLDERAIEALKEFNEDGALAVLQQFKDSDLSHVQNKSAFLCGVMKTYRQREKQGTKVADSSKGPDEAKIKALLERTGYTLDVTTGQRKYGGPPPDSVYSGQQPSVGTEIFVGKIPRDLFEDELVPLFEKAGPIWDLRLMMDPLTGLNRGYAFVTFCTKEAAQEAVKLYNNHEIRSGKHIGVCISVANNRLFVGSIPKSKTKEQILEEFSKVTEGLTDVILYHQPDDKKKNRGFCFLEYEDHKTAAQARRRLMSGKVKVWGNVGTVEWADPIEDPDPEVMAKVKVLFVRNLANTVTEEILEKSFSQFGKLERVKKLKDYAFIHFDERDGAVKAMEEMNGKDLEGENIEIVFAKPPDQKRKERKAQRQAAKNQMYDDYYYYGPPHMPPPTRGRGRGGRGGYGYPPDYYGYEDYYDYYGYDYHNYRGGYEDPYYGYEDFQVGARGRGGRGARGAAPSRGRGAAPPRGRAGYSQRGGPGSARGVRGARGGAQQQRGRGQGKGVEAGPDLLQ
- measurement-description: EMSA; apparent Kd, 2 mM Mg2+; three experiments; EMSA: 20 mM HEPES-KOH pH 7.3, ~100 mM KCl, 2 mM MgCl2, 1 mM DTT, 0.05% NP40, 5% glycerol, 0.1 mg/ml acetylated BSA (plus 2 ul protein in buffer A), 30 C 30 min, gel at 4 C; UV crosslinking in nuclease-treated RRL
- run-parameters: protein: recombinant; tags: C-terminal His6 (pET28a); label: 5' 32P; single strand
pKd: −log10 of the molar value.

{"binder": "AAAAAAAAAAAAAAAAAAAAAAAAAAAAAA (ssRNA) [oligo(A)30]", "pKd": "~7.52"}
